# measurementTarget: BChE (horse serum source) (Equus caballus, UniProt P81908)
# Sequence (P81908 whole entry): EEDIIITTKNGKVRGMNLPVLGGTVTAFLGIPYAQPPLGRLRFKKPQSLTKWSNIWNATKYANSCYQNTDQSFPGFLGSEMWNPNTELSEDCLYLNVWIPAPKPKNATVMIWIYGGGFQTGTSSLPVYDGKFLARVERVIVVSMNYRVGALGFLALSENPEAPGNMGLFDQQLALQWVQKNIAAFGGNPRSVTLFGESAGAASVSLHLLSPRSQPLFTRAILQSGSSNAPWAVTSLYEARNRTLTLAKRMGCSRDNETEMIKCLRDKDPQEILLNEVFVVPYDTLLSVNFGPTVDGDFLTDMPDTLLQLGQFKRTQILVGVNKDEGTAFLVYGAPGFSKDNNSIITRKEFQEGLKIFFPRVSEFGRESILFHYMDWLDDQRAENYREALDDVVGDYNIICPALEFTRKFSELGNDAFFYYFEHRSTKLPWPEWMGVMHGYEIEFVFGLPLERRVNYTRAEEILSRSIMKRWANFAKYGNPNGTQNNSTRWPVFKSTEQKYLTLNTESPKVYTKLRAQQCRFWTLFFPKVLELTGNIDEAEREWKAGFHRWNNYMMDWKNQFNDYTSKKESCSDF
# assayMethodText: biochemical
# runConditions: evaluated up to 100 µg/mL; means ± SEM of three measurements; read-out: BChE IC50 (converted)
Exercise: for every item that follows, state its recorded IC50.

CC1(C)CC[C@]2(C(=O)O)CC[C@]3(C)C(=CC[C@@H]4[C@@]5(C)C[C@@H](O)[C@H](O)[C@@](C)(CO)[C@@H]5[C@H](O)C[C@]43C)[C@@H]2C1 [Compound 8, terminolic acid]	> 198 µM

Batch request: IC50 per item, same order as input.
1. CC1(C)CC[C@]2(C(=O)O)CC[C@]3(C)C(=CC[C@@H]4[C@@]5(C)C[C@@H](O)[C@H](O)[C@@](C)(CO)[C@@H]5CC[C@]43C)[C@@H]2[C@@H]1O [Compound 7, arjungenin]
2. CC1(C)CCC2(C(=O)OC3OC(CO)C(O)C(O)C3O)CCC3(C)C(=CCC4C5(C)CC(O)C(O)C(C)(C)C5CCC43C)C2C1O (stereo not shown) [Compound 9, 24-deoxysericoside]
3. COc1cc2c(=O)oc3c(OC)c(O[C@@H]4O[C@H](CO)[C@@H](O)[C@H](O)[C@H]4O)cc4c(=O)oc(c1OC)c2c34 [Compound 3]

1. > 198 µM
2. > 154 µM
3. 149 µM

All figures here come from paper PMC11174011.
